Known % inhibition, Delta 1 co-culture Notch3 reporter gene assay of a selection of binders
# TGT: Human Notch3-Gal4-VP16 (human)
# METHOD: cell-based or functional assay
READOUT_LABEL: % inhibition, Delta 1 co-culture Notch3 reporter gene assay

- 12225 (antibody, human IgG1, kappa, V domains shown, also called MOR 12225) VH: QVQLVQSGAEVKKPGSSVKVSCKASGGTFSSYTISWVRQAPGQGLEWMGWIKPAFGTANYAQKFQGRVTITADESTSTAYMELSSLRSEDTAVYYCARGSFWFGYWGQGTLVTVSS VL: DIQMTQSPSSLSASVGDRVTITCRASQGINNYLNWYQQKPGKAPKLLIYDASKLQSGVPSRFSGSGSGTDFTLTISSLQPEDFATYYCQQYLQYPMTFGQGTKVEIKR: -8%
- 20337 (antibody, human IgG1, kappa, V domains shown) VH: QVQLVESGGGLVKPGGSLRLSCAASGFTFSTYVMHWVRQAPGKGLEWVGRIRANAYGGAADYAAPVKGRFTISRDDSKNTLYLQMNSLKTEDTAVYYCARAEARYRDVWGQGTLVTVSS VL: DIQMTQSPSSLSASVGDRVTITCRASQSISSHLNWYQQKPGKAPKLLIYAASNLQSGVPSRFSGSGSGTDFTLTISSLQPEDFATYYCQQDYHTPFTFGQGTKVEIKR: 18%
- 20345 (antibody, human IgG1, kappa, V domains shown) VH: QVQLVQSGAEVKKPGSSVKVSCKASGGTFSSYTISWVRQAPGQGLEWMGWIKPKLGMAHYAQKFQGRVTITADESTSTAYMELSSLRSEDTAVYYCARGSFWFGYWGQGTLVTVSS VL: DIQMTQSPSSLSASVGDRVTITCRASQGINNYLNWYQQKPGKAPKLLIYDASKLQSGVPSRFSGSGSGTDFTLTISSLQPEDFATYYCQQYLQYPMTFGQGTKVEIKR: 19%
- 20351 (antibody, human IgG1, kappa, V domains shown) VH: QVQLVQSGAEVKKPGSSVKVSCKASGGTFSSYTISWVRQAPGQGLEWMGWIKPRYGAAMYAQKFQGRVTITADESTSTAYMELSSLRSEDTAVYYCARGSFWFGYWGQGTLVTVSS VL: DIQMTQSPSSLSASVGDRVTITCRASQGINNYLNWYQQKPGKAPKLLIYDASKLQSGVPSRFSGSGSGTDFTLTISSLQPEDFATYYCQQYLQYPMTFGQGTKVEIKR: 30%
